assay: Half life in Sprague-Dawley rat at 2 mg/kg, iv or 5 mg/kg, po; type: ADME, organism-based; conditions: in vivo
reportedMetric: half-life (min)
Give the value in min but do not write min after it.

COc1ccc(CC(C)(C)NC[C@@H](O)CO[C@H](C)c2ccc(C)c3c2[C@@H]2[C@H](O3)[C@H]2C(=O)O)c(Cl)c1    174

Next, consider the following molecule.
For `CSc1ccc(CC(C)(C)NC[C@@H](O)CO[C@H](C)c2ccc(C)c3c2[C@@H]2[C@H](O3)[C@H]2C(=O)O)cc1F` , write its half-life. 114

* * *

assay: Clearance in Sprague-Dawley rat plasma at 2 mg/kg, iv or 5 mg/kg, po; format: ADME, organism-based
reportedMetric: clearance (mL/min/kg)
Report the value in mL/min/kg with no unit label.

CSc1ccc(CC(C)(C)NC[C@@H](O)CO[C@H](C)c2ccc(C)c3c2[C@@H]2[C@H](O3)[C@H]2C(=O)O)cc1F    40.2

Using known records, supply clearance for `COc1ccc(CC(C)(C)NC[C@@H](O)CO[C@H](C)c2ccc(C)c3c2[C@@H]2[C@H](O3)[C@H]2C(=O)O)c(Cl)c1` 41
